- ASSAY PROTOCOL: Biodistribution of 177Lu-labeled αMSH analogues in mice bearing B16F10 mouse melanoma
- Assay type: in vivo, C57BL/6J mice
- CONDITION CONTEXT: mouse, spleen, iv, total radioactivity; 24 h p.i., C57BL/6J mice, B16F10 melanoma; read-out: Biodistribution, Spleen
PROPERTY NAME: tissue uptake at 24 h (%ID/g)
Respond numerically; units are %ID/g and should not be typed.

Supply measured tissue uptake at 24 h of CCCC[C@H](NC(=O)CN1CCC(NC(=O)[C@H](CCCCNC(=O)CN2CCN(CC(=O)O)CCN(CC(=O)O)CCN(CC(=O)O)CC2)NC(=O)[C@H](CCC(=O)O)NC(=O)CCCc2ccc(I)cc2)CC1)C(=O)N[C@H]1CC(=O)NCCCC[C@@H](C(N)=O)N(C)C(=O)[C@H](Cc2c[nH]c3ccccc23)N(C)C(=O)[C@H](CCCNC(=N)N)N(C)C(=O)[C@@H](Cc2ccccc2)NC(=O)[C@H](Cc2c[nH]cn2)N(C)C1=O [^177Lu-labeled CCZ01088, metal not drawn] in your reply.
1
